Entries and their IC50 values follow.
# target.under.test: nucleotide exchange on hKRASG12C mediated by hSOS1 (Homo sapiens)
# Sequence (Q07889 564-1049): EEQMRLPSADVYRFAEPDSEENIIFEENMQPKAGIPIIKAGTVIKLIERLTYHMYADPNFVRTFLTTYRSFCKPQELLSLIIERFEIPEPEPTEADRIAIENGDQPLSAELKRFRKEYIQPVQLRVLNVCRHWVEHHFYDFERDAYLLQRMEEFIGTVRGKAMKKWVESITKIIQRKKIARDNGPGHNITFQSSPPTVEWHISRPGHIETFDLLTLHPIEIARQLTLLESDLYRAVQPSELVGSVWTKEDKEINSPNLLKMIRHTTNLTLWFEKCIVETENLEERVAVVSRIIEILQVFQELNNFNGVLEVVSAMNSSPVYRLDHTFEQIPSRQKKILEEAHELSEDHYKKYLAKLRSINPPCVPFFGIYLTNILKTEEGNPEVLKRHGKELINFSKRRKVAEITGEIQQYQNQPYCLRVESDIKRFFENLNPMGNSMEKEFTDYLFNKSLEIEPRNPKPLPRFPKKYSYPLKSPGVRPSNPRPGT

Past entries and their recorded results:
compound="Cc1nc(N[C@H](C)c2cccc(C(F)(F)C(C)(C)O)c2F)c2cc3c(c(F)c2n1)OCC(=O)N3C [Compound 47]" property_measured=IC50 result="0.031 to 0.13 µM"
compound="Cc1nc(N[C@H](C)c2cccc(C(F)(F)C(C)(C)O)c2F)c2cc3c(cc2n1)n(C)c(=O)n3C(C)C [Compound 105]" property_measured=IC50 result="0.001 to 0.03 µM"

Request: Lab request: please report IC50 under test system nucleotide exchange on hKRASG12C mediated by hSOS1 (Homo sapiens) for Cc1nc(N[C@H](C)c2cccc(C(F)(F)C(C)(C)O)c2F)c2cc3c(cc2n1)C(C)(C)C(=O)N3C [Compound 68]
Response: 0.001 to 0.03 µM

Request: Lab request: please report IC50 under test system nucleotide exchange on hKRASG12C mediated by hSOS1 (Homo sapiens) for Cc1nc(N[C@H](C)c2cccc(C(F)(F)C(C)(C)O)c2F)c2cc3c(cc2n1)C1(CCOCC1)C(=O)N3C [Compound 122]
Response: 0.001 to 0.03 µM

Request: Lab request: please report IC50 under test system nucleotide exchange on hKRASG12C mediated by hSOS1 (Homo sapiens) for Cc1nc(N[C@H](C)c2cccc(C(F)(F)C(C)(C)O)c2F)c2cc3c(cc2n1)C(C)(C)CN3C [Compound 75]
Response: 0.031 to 0.13 µM

Request: Lab request: please report IC50 under test system nucleotide exchange on hKRASG12C mediated by hSOS1 (Homo sapiens) for COC[C@](C)(O)C(F)(F)c1cccc([C@@H](C)Nc2nc(C)nc3cc4c(cc23)N(C)C(=O)C4(C)C)c1F (single isomer, unassigned) [Compound 127b]
Response: 0.001 to 0.03 µM

Request: Lab request: please report IC50 under test system nucleotide exchange on hKRASG12C mediated by hSOS1 (Homo sapiens) for COCC1(C)C(=O)N(C)c2cc3c(N[C@H](C)c4cccc(C(F)(F)C(C)(C)O)c4F)nc(C)nc3cc21 (mixture of isomers) [Compound 98]
Response: 0.001 to 0.03 µM

Request: Lab request: please report IC50 under test system nucleotide exchange on hKRASG12C mediated by hSOS1 (Homo sapiens) for Cc1nc(N[C@H](C)c2cccc(C(F)(F)C(C)(O)CN(C)C)c2F)c2cc3c(cc2n1)C(C)(C)C(=O)N3C (single isomer, unassigned) [Compound 129a]
Response: 0.001 to 0.03 µM

Request: Lab request: please report IC50 under test system nucleotide exchange on hKRASG12C mediated by hSOS1 (Homo sapiens) for Cc1nc(N[C@H](C)c2cccc(C(F)(F)C(C)(C)O)c2F)c2cc3c(cc2n1)n(C)c(=O)n3C [Compound 109]
Response: 0.001 to 0.03 µM

Request: Lab request: please report IC50 under test system nucleotide exchange on hKRASG12C mediated by hSOS1 (Homo sapiens) for Cc1nc(N[C@H](C)c2cccc(C(F)(F)C(C)(C)O)c2F)c2cc3c(cc2n1)N(C)C(=O)C31CCCC1 [Compound 58]
Response: 0.001 to 0.03 µM

Request: Lab request: please report IC50 under test system nucleotide exchange on hKRASG12C mediated by hSOS1 (Homo sapiens) for CCO[C@]1(C)C(=O)N(C)c2cc3c(N[C@H](C)c4cccc(C(F)(F)C(C)(C)O)c4F)nc(C)nc3cc21 (racemic) [Compound 121b]
Response: 0.001 to 0.03 µM

Request: Lab request: please report IC50 under test system nucleotide exchange on hKRASG12C mediated by hSOS1 (Homo sapiens) for CO[C@]1(C)C(=O)N(C)c2cc3c(N[C@H](C)c4cc(N)cc(C(F)(F)F)c4)nc(C)nc3cc21 [Compound 131]
Response: 0.031 to 0.13 µM

Request: Lab request: please report IC50 under test system nucleotide exchange on hKRASG12C mediated by hSOS1 (Homo sapiens) for Cc1nc(N[C@H](C)c2cccc(C(F)(F)C(C)(C)O)c2F)c2cc3c(cc2n1)O[C@@H](C)C(=O)N3C (single isomer, unassigned) [Compound 31a]
Response: 0.001 to 0.03 µM

Request: Lab request: please report IC50 under test system nucleotide exchange on hKRASG12C mediated by hSOS1 (Homo sapiens) for CCN1C(=O)COc2cc3nc(C)nc(N[C@H](C)c4cccc(C(F)(F)CO)c4F)c3cc21 [Compound 13]
Response: 0.001 to 0.03 µM

----------
Entries and their pIC50 values follow.
# target.under.test: UniProt:Q07889
# Sequence (Q07889 564-1049): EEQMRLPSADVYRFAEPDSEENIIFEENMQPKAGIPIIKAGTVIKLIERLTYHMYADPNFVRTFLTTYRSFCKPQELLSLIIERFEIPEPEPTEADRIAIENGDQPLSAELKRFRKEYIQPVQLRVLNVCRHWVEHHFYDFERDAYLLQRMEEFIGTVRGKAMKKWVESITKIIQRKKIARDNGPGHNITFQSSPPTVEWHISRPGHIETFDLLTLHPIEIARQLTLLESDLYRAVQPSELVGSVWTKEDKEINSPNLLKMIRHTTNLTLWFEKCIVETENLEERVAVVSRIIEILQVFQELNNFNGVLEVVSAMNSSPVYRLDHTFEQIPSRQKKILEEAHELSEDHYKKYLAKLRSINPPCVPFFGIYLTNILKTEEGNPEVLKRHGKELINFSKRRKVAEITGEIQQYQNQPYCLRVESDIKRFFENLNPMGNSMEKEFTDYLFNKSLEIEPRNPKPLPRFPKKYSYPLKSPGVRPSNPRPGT
pIC50: −log10 of the molar value.

Past entries and their recorded results:
molecule="Cc1nc(N[C@H](C)c2cccc(C(F)(F)[C@@](C)(O)CO)c2F)c2cc3c(cc2n1)OC(C)(C)C(=O)N3C (single isomer, unassigned) [Compound 23a]" result="7.52 to 9.00"
molecule="COCC[C@]1(C)C(=O)N(C)c2cc3c(N[C@H](C)c4cccc(C(F)(F)C(C)(C)O)c4F)nc(C)nc3cc21 (single isomer, unassigned) [Compound 123a]" result="7.52 to 9.00"

// below: pIC50 requested for another molecule
Request: Lab request: please report pIC50 under test system UniProt:Q07889 for Cc1nc(N[C@H](C)c2cccc(C(F)(F)C(C)(C)O)c2F)c2cc3c(cc2n1)N(C)[C@@H](C)C(=O)N3C (racemic) [Compound 27a]
Response: 7.52 to 9.00

----------
# target.under.test: protein-protein interaction between hSOS1 and hKRASG12C (Homo sapiens)
# Construct: GST-hSOS1, 564-1049aa expressed and purified in-house
# experiment.summary: KRAS-SOS1 interaction assay (HTRF)
# experimental.setup: GST-hSOS1 564-1049aa, HIS-hKRASG12C, read-out: KRAS-SOS1 Interaction inhibition IC50
property.measured: IC50

Past entries and their recorded results:
compound="Cc1nc(N[C@H](C)c2cccc(C(F)(F)CO)c2F)c2cc3c(cc2n1)OC1(CC1)C(=O)N3C [Compound 25]" result="1 to 10 nM"
compound="Cc1nc(N[C@H](C)c2cccc(C(F)(F)C(C)(O)CF)c2F)c2cc3c(cc2n1)OC(C)(C)C(=O)N3C (stereo partly shown) [Compound 54]" result="1 to 10 nM"
compound="CCc1nc(N[C@H](C)c2cccc(C(F)(F)C(C)(C)O)c2F)c2cc3c(cc2n1)N(C)C(=O)C3(C)C [Compound 86]" result="1 to 10 nM"

Request: What value of IC50 has been recorded for this entry: COC1(C)C(=O)N(C)c2cc3nc(C)nc(N[C@H](C)c4cccc(C(F)(F)C(C)(C)O)c4F)c3cc21 (mixture of isomers) [Compound 96]
Response: 1 to 10 nM

Request: What value of IC50 has been recorded for this entry: Cc1nc(N[C@H](C)c2cccc(C(F)(F)C(C)(C)O)c2F)c2cc3c(cc2n1)C1(CCOC1)C(=O)N3C (single isomer, unassigned) [Compound 128b]
Response: 1 to 10 nM

Request: What value of IC50 has been recorded for this entry: Cc1nc(N[C@H](C)c2cccc(C(F)(F)C(C)(C)O)c2F)c2cc3c(cc2n1)N(C)[C@@H](C)C(=O)N3C (racemic) [Compound 27a]
Response: 1 to 10 nM

Request: What value of IC50 has been recorded for this entry: Cc1nc(N[C@H](C)c2cccc(C(F)(F)C(C)(C)O)c2F)c2cc3c(cc2n1)C(C)(C)C(=O)N3C [Compound 68]
Response: 1 to 10 nM

Request: What value of IC50 has been recorded for this entry: CCC1(OC)C(=O)N(C)c2cc3c(N[C@H](C)c4cc(N)cc(C(F)(F)F)c4)nc(C)nc3cc21 (stereo partly shown) [Compound 139]
Response: 11 to 25 nM

Request: What value of IC50 has been recorded for this entry: COCC1(C)C(=O)N(C)c2cc3c(N[C@H](C)c4cccc(C(F)(F)C(C)(C)O)c4F)nc(C)nc3cc21 (mixture of isomers) [Compound 98]
Response: 11 to 25 nM

Request: What value of IC50 has been recorded for this entry: Cc1nc(N[C@H](C)c2cc(N)cc(C(F)(F)F)c2)c2cc3c(cc2n1)C1(CCOCC1)C(=O)N3C [Compound 138]
Response: 11 to 25 nM

Request: What value of IC50 has been recorded for this entry: CCN1C(=O)C(C)(C)c2cc3nc(C)nc(N[C@H](C)c4cccc(C(F)(F)C(C)(C)O)c4F)c3cc21 [Compound 64]
Response: 1 to 10 nM

Request: What value of IC50 has been recorded for this entry: C[C@@H](Nc1nc(C2CC2)nc2cc3c(cc12)C(C)(C)C(=O)N3C)c1cccc(C(F)(F)C(C)(C)O)c1F [Compound 110]
Response: 11 to 25 nM

Request: What value of IC50 has been recorded for this entry: CO[C@]1(C)C(=O)N(C)c2cc3c(N[C@H](C)c4cccc(C(F)(F)C(C)(C)O)c4F)nc(C)nc3cc21 (single isomer, unassigned) [Compound 101a]
Response: 1 to 10 nM
